Here the recorded normalized growth is given for each entry.
- protocol: chemical genetic growth profiling, strain panel (AID 1159580);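 also: tested at 20 µM; growth read once vehicle control cultures reached saturation at 30 °C; 1 = growth at the plate median or of vehicle wells; lower values mean less growth of the strain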
- details: S. cerevisiae deletion strains, growth OD, locus YLR058C, strain SHM2, hits give low values
The whole screen tested about 5,500 compounds, of which about 2,000 (36%) were called active. Roughly 18% stayed inconclusive and do not appear here. The list shows a part of the results.

compound | normalized growth
CC(C)NCC(O)c1ccc2ccccc2c1 (configuration not stated) | 1.01 (inactive)

Input: Entry CC1(C)C(O)CC(O)C2(C)C1CC(O)C1(C)C2CCC2(C)C(c3ccoc3)CC3OC321 (configuration not stated) has what normalized growth?
Output: 0.998 (inactive)

Input: Could you do the same for CC(C)(C)NCC(O)c1ccccc1Cl (configuration not stated) , please?
Output: 0.975 (inactive)

Input: Another compound: "Cc1occc(=O)c1O"
Output: 1.01 (inactive)

Input: Let us now turn to "CCCc1occc(=O)c1/C=C/O"
Output: 0.973 (inactive)

Input: Repeat with CC(=O)OC1CC(OC(C)=O)C2(C)C(CC(OC(C)=O)C3(C)C2CCC2(C)C(c4ccoc4)CC4OC423)C1(C)C (configuration not stated)
Output: 1.01 (inactive)

Input: Lookup "C=C[C@](C)(O)CCC=C(C)C"
Output: 0.997 (inactive)

Input: Here is the next compound: "Cc1occc(=O)c1/C=C/O"
Output: 1 (inactive)

====

Examples of compounds with documented normalized growth follow.
- protocol: chemical genetic growth profiling, strain panel (AID 1159580);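 also: tested at 20 µM; growth read once vehicle control cultures reached saturation at 30 °C; 1 = growth at the plate median or of vehicle wells; lower values mean less growth of the strain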
- details: S. cerevisiae deletion strains, growth OD, locus YGL248W, strain PDE1, hits give low values
In all, about 5,500 compounds went through this assay and about 2,000 (36%) were called active. Another 18% or so got no clear call; they are omitted. The list shows a part of the results.
Reply briefly: the number, and no unit.

Worked examples, 4 compounds total:
compound | normalized growth
NCC(O)c1ccc(O)cc1 (configuration not stated) | 0.989
Nc1nc2c(ncn2C2C[C@H](O)[C@@H](CO)O2)c(=O)[nH]1 (some centres not stated) | 0.996
Nc1ncnc2c1ncn2C1C[C@H](O)[C@@H](CO)O1 (some centres not stated) | 0.981
CNC[C@@H](O)c1ccc(O)c(O)c1 | 1

Input: Item CC(C)NCC(O)c1ccc(O)c(O)c1 (configuration not stated) has what recorded normalized growth?
Output: 1.01

Input: Same again, this time with CC(C)NCC(O)c1ccc2ccccc2c1 (configuration not stated)
Output: 1.01

Input: Please do the same for "NC[C@H](O)c1ccc(O)c(O)c1" as well.
Output: 1.01

Input: Can you check "Nc1ncnc2c1ncn2[C@@H]1O[C@H](CO)[C@@H](O)[C@H]1O" next?
Output: 0.979

Input: Another: O=C1O[C@H](C(O)CO)C(O)=C1O (some centres not stated)
Output: 0.997

Input: And "NCCCC[C@H](N[C@@H](CCc1ccccc1)C(=O)O)C(=O)N1CCC[C@H]1C(=O)O" ?
Output: 0.966

Input: What do we get for CC1(C)C(C(Cl)Cl)C2(Cl)C(Cl)C(Cl)C1(Cl)C2(Cl)Cl (configuration not stated) ?
Output: 0.991

Input: Field entry: Nc1ncnc2c1ncn2C1O[C@H](COP(=O)(O)O)[C@@H](O)[C@H]1O (some centres not stated)
Output: 1.02
